Readings of Fpo (%) for the listed molecules
experiment: In vivo pharmacokinetics, IV and oral gavage; parameters: species or system male Sprague-Dawley rats; details: Table 6; rat, PO 5 mg/kg, IV 2 mg/kg
Structures can show the parent of a compound that is named as a salt.
Quick note: give the figure in %, leave out the unit.

In: # get_value(readout='Fpo (%)', item= "N[C@H](CNc1ncc(-c2ccc3cnc(F)cc3c2)s1)Cc1ccc(Cl)c(F)c1" )
Out: 67

In: # get_value(readout='Fpo (%)', item= N[C@H](CCc1ncc(-c2ccc3cnc(F)cc3c2)s1)[C@@H](O)c1ccc(C(F)(F)F)cc1 [Example 36, trifluoroacetate] )
Out: 66

In: # get_value(readout='Fpo (%)', item= CC(F)(F)c1ccc([C@H](O)[C@H](N)CNc2ncc(-c3ccc4cnccc4c3)s2)cc1 [38′, reference compound] )
Out: 4

In: # get_value(readout='Fpo (%)', item= COCc1nc(NC[C@@H](N)Cc2ccc(C(F)(F)F)cc2)sc1-c1ccc2cnccc2c1 [24′, reference compound] )
Out: 19

In: # get_value(readout='Fpo (%)', item= "CC(F)(F)c1ccc(C[C@H](N)CNc2ncc(-c3ccc4cnc(F)cc4c3)s2)cn1" )
Out: 47

In: # get_value(readout='Fpo (%)', item= "N[C@H](CNc1ncc(-c2ccc3cnc(F)cc3c2)s1)[C@@H](CO)c1ccc(C(F)(F)F)cc1" )
Out: 28

In: # get_value(readout='Fpo (%)', item= N[C@H](CNc1ncc(-c2ccc3cnccc3c2)s1)[C@@H](CO)c1ccc(C(F)(F)F)cc1 [33′, reference compound] )
Out: 10

In: # get_value(readout='Fpo (%)', item= "N[C@H](CNc1ncc(-c2ccc3cnc(F)cc3c2)s1)Cc1ccc(C(F)(F)F)nc1" )
Out: 57

In: # get_value(readout='Fpo (%)', item= "CC(F)(F)c1ccc(C[C@H](N)CCc2ncc(-c3ccc4cnc(F)cc4c3)s2)cn1" )
Out: 85

In: # get_value(readout='Fpo (%)', item= CC(F)(F)c1ccc(C[C@H](N)CNc2ncc(-c3ccc4cnccc4c3)s2)cn1 [7′, reference compound] )
Out: 3

In: # get_value(readout='Fpo (%)', item= N[C@H](CNc1ncc(-c2ccc3cnccc3c2)s1)Cc1ccc(C(F)(F)F)nc1 [2′, reference compound] )
Out: 5

###

assay: In vivo pharmacokinetics, IV and oral gavage; parameters: species or system male Sprague-Dawley rats; conditions: male, Sprague-Dawley, plasma; rat, IV 0.5 mg/kg; read-out: IV AUClast
assay readout: AUC(0-t) (ng·h/mL)
Quick note: give the figure in ng·h/mL, leave out the unit.

In: # get_value(readout='AUC(0-t)', item= COCc1nc(NC[C@@H](N)Cc2ccc(C(F)(F)F)nc2)sc1-c1ccc2cnccc2c1 [Comparative Example 18′, reference compound] )
Out: 33

###

Test: In vivo pharmacokinetics, IV and oral gavage
Design: species or system male Sprague-Dawley rats
Conditions: male, Sprague-Dawley, plasma; rat, IV 2 mg/kg
Method: In vivo pharmacokinetic parameters were determined by measuring systemic plasma exposure in male Sprague-Dawley rats (Charles River Laboratories or Taconic, Oxnard, Calif.) by intravenous administration (N=3 fed rats: 2 mg/kg tail vein injection in DMSO) and oral gavage (N=3 fasted rats: 5 mg/kg in 1% Tween 80-2% HPMC-97% deionized water-pH 2.0 vehicle) (Comparative Example 18′ was only dosed IV and at 0.5 mg/kg). […]
assay readout: clearance (mL/min/kg)
Quick note: give the figure in mL/min/kg, leave out the unit.

In: # get_value(readout='clearance', item= N[C@H](CNc1ncc(-c2ccc3cnccc3c2)s1)CN1CCC(C(F)(F)F)CC1 [Comparative Example 25′, reference compound] )
Out: 85.6

In: # get_value(readout='clearance', item= CC(F)(F)c1ccc([C@H](O)[C@H](N)CNc2ncc(-c3ccc4cnccc4c3)s2)cc1 [38′, reference compound] )
Out: 108

In: # get_value(readout='clearance', item= N[C@H](CNc1ncc(-c2ccc3cnccc3c2)s1)[C@@H](CO)c1ccc(C(F)(F)F)cc1 [33′, reference compound] )
Out: 47.5

In: # get_value(readout='clearance', item= "COCc1nc(NC[C@@H](N)Cc2ccc(C(F)(F)F)nc2)sc1-c1ccc2cnc(F)cc2c1" )
Out: 17.6

In: # get_value(readout='clearance', item= "CC(F)(F)c1ccc(C[C@H](N)CNc2ncc(-c3ccc4cnc(F)cc4c3)s2)cn1" )
Out: 22.2

In: # get_value(readout='clearance', item= "C[C@@H](c1ccc(C(F)(F)F)cc1)[C@H](N)CNc1ncc(-c2ccc3cnc(F)cc3c2)s1" )
Out: 12.5
